Target: E. coli CsgA (Escherichia coli, UniProt P28307)
Construct: made in house; host or cells: E. coli NEB 3016 slyD::kan, pET11d
Sequence (P28307 23-151): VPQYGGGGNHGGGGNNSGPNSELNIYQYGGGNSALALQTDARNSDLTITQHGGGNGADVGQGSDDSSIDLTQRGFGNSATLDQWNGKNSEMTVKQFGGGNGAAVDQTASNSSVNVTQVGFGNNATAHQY
Assay: In vitro ThioflavinT assay of CsgA aggregation (CsgA ThT Assay)
Assay type: biochemical
Details: read-out: CsgA ThT Assay (10 μM CsgA) % Control AUC at 1005 minutes, 100 μM (activity range), CsgA 10 μM, black plates; compound 100 μM; 1005 minutes; class symbol
measurement_type: remaining activity at 100 µM

Completed entries (count: 3):
**Query** Which remaining activity at 100 µM reading was recorded for the molecule Nc1c(Cc2cccc3ccccc23)c(-c2cccc(C(F)(F)F)c2)c2n(c1=O)C(C(=O)O)CN(CCCCCO)S2(=O)=O (stereo not drawn) ?
**Result** 31 to 60%

**Query** Next molecule: CC(=O)Nc1ccc(Cc2cc(=O)n3c(c2-c2cccc(C(F)(F)F)c2)S(=O)(=O)N(C)CC3C(=O)O)c2ccccc12 (stereo not drawn)
**Result** > 60%

**Query** Another molecule to check: C=CCCN1CC(C(=O)O)n2c(c(-c3cccc(C(F)(F)F)c3)c(Cc3cccc4ccccc34)cc2=O)S1(=O)=O (stereo not drawn)
**Result** 31 to 60%

Next:
**Query** Record request: remaining activity at 100 µM value, item C/C=C\c1c(Cc2cccc3ccccc23)c(-c2cccc(C(F)(F)F)c2)c2n(c1=O)C(C(=O)O)CN(C)S2(=O)=O (stereo not drawn)
**Result** 11 to 31%

**Query** Now consider CCc1c(Cc2cccc3ccccc23)c(-c2cccc(C(F)(F)F)c2)c2n(c1=O)C(C(=O)O)CN(C1CCCCC1)S2(=O)=O (stereo not drawn) .
**Result** 31 to 60%

**Query** // repeat for CN(C)Cc1c(Cc2cccc3ccccc23)c(-c2cccc(C(F)(F)F)c2)c2n(c1=O)C(C(=O)O)CS2 (stereo not drawn) and report
**Result** > 60%

* * *

Attribute: remaining activity at 25 µM
Target: E. coli CsgA (Escherichia coli)
Construct: made in house; host or cells: E. coli NEB 3016 slyD::kan, pET11d
Assay: In vitro ThioflavinT assay of CsgA aggregation (CsgA ThT Assay)
Assay type: biochemical
Conditions: read-out: CsgA ThT Assay (10 μM CsgA) % Control AUC at 1005 minutes, 25 μM, mean AUC as % of DMSO control; CsgA 10 μM, black plates; compound 25 μM; 1005 minutes
Only the number, expressed in %, is required.

Consider the worked cases shown below.
**Query** Query the reported remaining activity at 25 µM for E. coli CsgA (Escherichia coli); item: O=C(O)C1CS(=O)(=O)c2c(-c3cccc(C(F)(F)F)c3)c(C(F)(F)c3cccc4ccccc34)cc(=O)n21 (stereo not drawn)
**Result** 25

**Query** // repeat for O=C(O)C1CN(CCCCCO)S(=O)(=O)c2c(-c3cccc(C(F)(F)F)c3)c(Cc3cccc4ccccc34)c(NC3CCCC3)c(=O)n21 (stereo not drawn) and report
**Result** 32

**Query** Same question, CN1CC(C(=O)O)n2c(c(-c3cccc(C(F)(F)F)c3)c(Cc3cccc4ccccc34)c(N3CCOCC3)c2=O)S1(=O)=O (stereo not drawn) this time
**Result** 40

**Query** Another: O=C(O)c1c(CCc2ccccc2)sc2c(-c3cccc(C(F)(F)F)c3)c(Cc3cccc4ccccc34)cc(=O)n12
**Result** 77

**Query** Another molecule to check: CN1CC(C(=O)O)n2c(c(-c3cccc(C(F)(F)F)c3)c(Cc3cccc4ccccc34)c(CO)c2=O)S1(=O)=O (stereo not drawn)
**Result** 97

Moving on to the next molecule.
**Query** Tell me reported remaining activity at 25 µM for CCc1c(Cc2cccc3ccccc23)c(-c2cccc(C(F)(F)F)c2)c2n(c1=O)C(C(=O)O)CN(C)S2(=O)=O (stereo not drawn) , tested with E. coli CsgA (Escherichia coli).
**Result** 17

* * *

Target: human α-synuclein (Homo sapiens)
Construct: the full-length gene for untagged human α-synuclein was inserted; made in house; host or cells: E. coli BL21(DE3), plasmid derived from pT7 or pET11a
Test: Cell-free Thioflavin T assay of α-synuclein aggregation (αSyn ThT Assay)
Assay type: biochemical
Settings: αSyn 50 μM; compounds at 100 μM; class symbol; read-out: αSyn ThT Assay % Inhibition (activity range)
Listed here are compounds together with their documented inhibition at 100 µM.

**Query** For Cn1c(=O)c2c(nc(CCCCN3CC(C(=O)O)n4c(c(-c5cccc(C(F)(F)F)c5)c(Cc5cccc6ccccc56)cc4=O)S3(=O)=O)n2C)n(C)c1=O (stereo not shown) [Compound 044] , what is its reported inhibition at 100 µM?
**Result** -10 to 10%

**Query** # repeat for O=C(O)C1CN(C[C@@H](O)CO)S(=O)(=O)c2c(-c3cccc(C(F)(F)F)c3)c(Cc3cccc4ccccc34)cc(=O)n21 (mixture of isomers) [Compound 065b]
**Result** -10 to 10%

**Query** Also check O=C(O)c1csc2c(-c3cccc(C(F)(F)F)c3)c(Cc3cccc4ccccc34)cc(=O)n12 [Compound 019]
**Result** 31 to 60%

**Query** // repeat for Nc1c(Cc2cccc3ccccc23)c(-c2cccc(C(F)(F)F)c2)c2n(c1=O)C(C(=O)O)CS2 (racemic) [Compound 020] and report
**Result** 31 to 60%

**Query** Check CN1CC(C(N)=O)n2c(c(-c3cccc(C(F)(F)F)c3)c(Cc3cccc4ccccc34)cc2=O)S1(=O)=O (stereo not shown) [Compound 030] too.
**Result** -10 to 10%

**Query** Request: CCCN1CC(C(=O)O)n2c(c(-c3cccc(C(F)(F)F)c3)c(Cc3cccc4ccccc34)cc2=O)S1(=O)=O (racemic) [Compound 016]
**Result** > 60%

**Query** And for NC(=O)CN1CC(C(=O)O)n2c(c(-c3cccc(C(F)(F)F)c3)c(Cc3cccc4ccccc34)cc2=O)S1(=O)=O (stereo not shown) [Compound 028] ?
**Result** 31 to 60%

**Query** # repeat for O=C(O)C1CN(CCCO)S(=O)(=O)c2c(-c3cccc(C(F)(F)F)c3)c(Cc3cccc4ccccc34)c(NC3CCCC3)c(=O)n21 (stereo not shown) [Compound 120]
**Result** 31 to 60%

**Query** Ok, now Cc1c(Cc2cccc3ccccc23)c(-c2cccc(C(F)(F)F)c2)c2n(c1=O)C(C(=O)O)CN(C)S2(=O)=O (stereo not shown) [Compound 068]
**Result** > 60%

**Query** What about this compound? CN1CC(C(=O)O)n2c(c(-c3cccc(C(F)(F)F)c3)c(Cc3ccc(N)c4ccccc34)cc2=O)S1(=O)=O (stereo not shown) [Compound 040]
**Result** > 60%

***
**Query** Fill blank: measured inhibition at 100 µM of the compound CCCCCN1CC(C(=O)O)n2c(c(-c3cccc(C(F)(F)F)c3)c(Cc3cccc4ccccc34)cc2=O)S1(=O)=O (single isomer, unassigned) [Compound 025a] is ____.
**Result** 31 to 60%

**Query** One more compound: O=C(O)C1C[S+]([O-])c2c(-c3cccc(C(F)(F)F)c3)c(Cc3cccc4ccccc34)cc(=O)n21 (racemic) [Compound 027b]
**Result** -10 to 10%

**Query** Okay, and CN1CC(C(=O)O)n2c(c(-c3cccc(C(F)(F)F)c3)c(Cc3ccc(NS(C)(=O)=O)c4ccccc34)cc2=O)S1(=O)=O (stereo not shown) [Compound 067] ?
**Result** 31 to 60%

* * *

Items are presented alongside their recorded remaining activity at 100 µM.
Molecular target: E. coli CsgA (Escherichia coli, UniProt P28307)
Construct: made in house; host or cells: E. coli NEB 3016 slyD::kan, pET11d
Experiment: In vitro ThioflavinT assay of CsgA aggregation (CsgA ThT Assay)
Type: biochemical
Conditions: read-out: CsgA ThT Assay (10 μM CsgA) % Control AUC at 1005 minutes, 100 μM (activity range), CsgA 10 μM, black plates; compound 100 μM; 1005 minutes; class symbol

**Query** Lab note: need remaining activity at 100 µM for Nc1c(Cc2cccc3ccccc23)c(-c2cccc(C(F)(F)F)c2)c2n(c1=O)C(C(=O)O)CN(C[C@H](O)CO)S2(=O)=O (stereo partly drawn) on E. coli CsgA (Escherichia coli, UniProt P28307), anyone have it?
**Result** > 60%

**Query** // next record Cn1c(=O)c2c(nc(CCCCCN3CC(C(=O)O)n4c(c(-c5cccc(C(F)(F)F)c5)c(Cc5cccc6ccccc56)cc4=O)S3(=O)=O)n2C)n(C)c1=O (stereo not drawn)
**Result** 31 to 60%

Continue with the compound presented below.
**Query** Checklist item: remaining activity at 100 µM tested on E. coli CsgA (Escherichia coli, UniProt P28307), entry O=C(O)C1CN(CCO)S(=O)(=O)c2c(-c3cccc(C(F)(F)F)c3)c(Cc3cccc4ccccc34)cc(=O)n21 (stereo not drawn) , value?
**Result** 11 to 31%
